target: UniProt P11309; assay: KINOMEscan competition binding; details: compound 10.0 µM
Sequence (P11309 whole entry, looked up): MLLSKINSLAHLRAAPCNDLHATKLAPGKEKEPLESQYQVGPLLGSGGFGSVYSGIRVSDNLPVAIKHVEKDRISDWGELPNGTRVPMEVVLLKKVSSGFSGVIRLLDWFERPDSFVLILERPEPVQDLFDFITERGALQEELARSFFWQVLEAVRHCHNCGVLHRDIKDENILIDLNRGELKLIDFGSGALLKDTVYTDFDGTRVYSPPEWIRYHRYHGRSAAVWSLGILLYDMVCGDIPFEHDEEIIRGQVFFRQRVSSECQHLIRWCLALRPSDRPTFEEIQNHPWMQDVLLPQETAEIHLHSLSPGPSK
# Lookup of reported kinase still bound, per cent of control keyed by entry

# chem smiles, scale unit, kinase still bound, per cent of control
rows = [
    ("COc1ccc(N(C(=O)Oc2c(C)cccc2C)c2ccnc(Nc3ccc(N4CCN(C)CC4)cc3)n2)c(OC)c1", "%", 100),
    ("CNC(=O)c1ccc(Nc2cc(Nc3ccccc3S(=O)(=O)C(C)C)c3cc[nH]c3n2)nc1", "%", 100),
    ("COc1cc(N2CCN(C)CC2)ccc1Nc1ncc2c(n1)N(C)c1ccccc1C(=O)N2C", "%", 100),
    ("CS(=O)(=O)N1CCN(Cc2cc3nc(-c4cccc5[nH]ncc45)nc(N4CCOCC4)c3s2)CC1", "%", 100),
    ("C[C@@H](Oc1cc(-c2cnn(C3CCNCC3)c2)cnc1N)c1c(Cl)ccc(F)c1Cl", "%", 100),
    ("COc1cc2ncnc(-n3nc(-c4ccccn4)nc3N)c2cc1OC", "%", 15),
    ("N#CCNC(=O)c1ccc(-c2ccnc(Nc3ccc(N4CCOCC4)cc3)n2)cc1", "%", 100),
    ("CN(C)C/C=C/C(=O)Nc1ccc(C(=O)Nc2cccc(Nc3nccc(-c4cccnc4)n3)c2)cc1", "%", 95),
    ("CCN1CCN(C(=O)Cc2ccc(Nc3ncc(F)c(Nc4ccc(C(=O)Nc5ccccc5Cl)cc4)n3)cc2)CC1", "%", 60),
    ("CNC(=O)c1cc(Oc2ccc(NC(=O)Nc3ccc(Cl)c(C(F)(F)F)c3)cc2)ccn1", "%", 98),
    ("C=CC(=O)Nc1ccc(CN(C(=O)Nc2c(Cl)c(OC)cc(OC)c2Cl)c2cc(Nc3ccc(N4CCN(C)CC4)cc3)ncn2)cc1", "%", 100),
    ("O=c1cc(N2CCOCC2)oc2c(-c3cccc4c3sc3ccccc34)cccc12", "%", 62),
]

----------
target: EPHB4 (human); experiment: KINOMEscan competition binding; details: compound 10.0 µM

# chem smiles, scale unit, kinase still bound, per cent of control
records = [
    ("CN(C)C/C=C/C(=O)Nc1ccc(C(=O)Nc2cccc(Nc3nccc(-c4cccnc4)n3)c2)cc1", "%", 100),
    ("CCN(CC)CCCCNc1ncc2cc(-c3cc(OC)cc(OC)c3)c(NC(=O)NC(C)(C)C)nc2n1", "%", 100),
    ("COc1ccc(N(C(=O)Oc2c(C)cccc2C)c2ccnc(Nc3ccc(N4CCN(C)CC4)cc3)n2)c(OC)c1", "%", 0),
    ("COc1cc2ncn(-c3cc(OCc4ccccc4C(F)(F)F)c(C(N)=O)s3)c2cc1OC", "%", 87),
    ("CNC(=O)c1ccc(Nc2cc(Nc3ccccc3S(=O)(=O)C(C)C)c3cc[nH]c3n2)nc1", "%", 100),
    ("COc1cc(C(=O)N2CCC(N3CCN(C)CC3)CC2)ccc1Nc1ncc2c(n1)N(C)c1ccccc1C(=O)N2C", "%", 100),
]

----------
biological target: MAP4K3 (human); experiment: KINOMEscan competition binding; details: compound 10.0 µM
Below, each entry is listed with its recorded kinase still bound, per cent of control.

# chem smiles, scale unit, kinase still bound, per cent of control
rows = [
    ("CS(=O)(=O)N1CCN(Cc2cc3nc(-c4cccc5[nH]ncc45)nc(N4CCOCC4)c3s2)CC1", "%", 100),
    ("C=CC(=O)Nc1ccc(CN(C(=O)Nc2c(Cl)c(OC)cc(OC)c2Cl)c2cc(Nc3ccc(N4CCN(C)CC4)cc3)ncn2)cc1", "%", 7.4),
    ("COc1cc(N2CCN(C)CC2)ccc1Nc1ncc2c(n1)N(C)c1ccccc1C(=O)N2C", "%", 100),
    ("N#CCNC(=O)c1ccc(-c2ccnc(Nc3ccc(N4CCOCC4)cc3)n2)cc1", "%", 57),
    ("C=CC(=O)Nc1cc(-n2c(=O)ccc3cnc4ccc(-c5cn[nH]c5)cc4c32)ccc1C", "%", 73),
    ("COc1ccc(N(C(=O)Oc2c(C)cccc2C)c2ccnc(Nc3ccc(N4CCN(C)CC4)cc3)n2)c(OC)c1", "%", 1.4),
    ("CCN(CC)CCCCNc1ncc2cc(-c3cc(OC)cc(OC)c3)c(NC(=O)NC(C)(C)C)nc2n1", "%", 100),
    ("O=C(Nc1cccc(Nc2ncc(Br)c(NCCc3cnc[nH]3)n2)c1)N1CCCC1", "%", 4.6),
    ("CN(C)C/C=C/C(=O)Nc1ccc(C(=O)Nc2cccc(Nc3nccc(-c4cccnc4)n3)c2)cc1", "%", 57),
    ("CCN(CC)CCCCNc1ncc2c(n1)N(C)C(=O)N(c1c(Cl)c(OC)cc(OC)c1Cl)C2", "%", 100),
]

----------
target: ACVR1B (human); assay: KINOMEscan competition binding; details: compound 10.0 µM

# chem smiles, kinase still bound, per cent of control [%]
data = [
    ("CN(C)C/C=C/C(=O)Nc1ccc(C(=O)Nc2cccc(Nc3nccc(-c4cccnc4)n3)c2)cc1", 86),
    ("O=C(Nc1cccc(Nc2ncc(Br)c(NCCc3cnc[nH]3)n2)c1)N1CCCC1", 61),
    ("O=c1cc(N2CCOCC2)oc2c(-c3cccc4c3sc3ccccc34)cccc12", 91),
    ("C=CC(=O)Nc1ccc(CN(C(=O)Nc2c(Cl)c(OC)cc(OC)c2Cl)c2cc(Nc3ccc(N4CCN(C)CC4)cc3)ncn2)cc1", 100),
    ("CCN(CC)CCCCNc1ncc2c(n1)N(C)C(=O)N(c1c(Cl)c(OC)cc(OC)c1Cl)C2", 100),
    ("COCC(=O)NC/C=C/c1ccc2ncnc(Nc3ccc(Oc4ccc(C)nc4)c(C)c3)c2c1", 100),
    ("COc1cc2ncnc(-n3nc(-c4ccccn4)nc3N)c2cc1OC", 14),
    ("CCN1CCN(C(=O)Cc2ccc(Nc3ncc(F)c(Nc4ccc(C(=O)Nc5ccccc5Cl)cc4)n3)cc2)CC1", 45),
]

----------
target: EPHB3 (human); test: KINOMEscan competition binding; settings: compound 10.0 µM
Each record here notes measured kinase still bound, per cent of control.
readout label: kinase still bound, per cent of control

# chem smiles, result
records = [
    ("COc1cc(C(=O)N2CCC(N3CCN(C)CC3)CC2)ccc1Nc1ncc2c(n1)N(C)c1ccccc1C(=O)N2C", "100%"),
    ("NC(=O)Nc1cc(-c2cccc(F)c2)sc1C(=O)N[C@@H]1CCCNC1", "95%"),
    ("CCN(CC)CCCCNc1ncc2c(n1)N(C)C(=O)N(c1c(Cl)c(OC)cc(OC)c1Cl)C2", "100%"),
    ("O=C1NC(=O)/C(=C/c2ccc3nccc(-c4ccncc4)c3c2)S1", "71%"),
    ("N#CCNC(=O)c1ccc(-c2ccnc(Nc3ccc(N4CCOCC4)cc3)n2)cc1", "100%"),
    ("CN(C)C/C=C/C(=O)Nc1ccc(C(=O)Nc2cccc(Nc3nccc(-c4cccnc4)n3)c2)cc1", "75%"),
    ("CNC(=O)c1ccc(Nc2cc(Nc3ccccc3S(=O)(=O)C(C)C)c3cc[nH]c3n2)nc1", "100%"),
    ("O=C(Nc1cccc(Nc2ncc(Br)c(NCCc3cnc[nH]3)n2)c1)N1CCCC1", "100%"),
    ("CS(=O)(=O)N1CCN(Cc2cc3nc(-c4cccc5[nH]ncc45)nc(N4CCOCC4)c3s2)CC1", "100%"),
    ("CCN(CC)CCCCNc1ncc2cc(-c3cc(OC)cc(OC)c3)c(NC(=O)NC(C)(C)C)nc2n1", "100%"),
]

----------
molecular target: EPHB6 (human); assay: KINOMEscan competition binding; conditions: compound 10.0 µM

# chem smiles, kinase still bound, per cent of control, %
records = [
    ("COc1ccc(N(C(=O)Oc2c(C)cccc2C)c2ccnc(Nc3ccc(N4CCN(C)CC4)cc3)n2)c(OC)c1", 1.2),
    ("COc1cc(N2CCN(C)CC2)ccc1Nc1ncc2c(n1)N(C)c1ccccc1C(=O)N2C", 34),
    ("O=c1cc(N2CCOCC2)oc2c(-c3cccc4c3sc3ccccc34)cccc12", 100),
    ("COCC(=O)NC/C=C/c1ccc2ncnc(Nc3ccc(Oc4ccc(C)nc4)c(C)c3)c2c1", 74),
]

----------
Reported values of kinase still bound, per cent of control for individual entries
molecular target: SRMS (human); experiment: KINOMEscan competition binding; details: compound 10.0 µM

# chem smiles, kinase still bound, per cent of control
data = [
    ("CS(=O)(=O)N1CCN(Cc2cc3nc(-c4cccc5[nH]ncc45)nc(N4CCOCC4)c3s2)CC1", "100%"),
    ("C=CC(=O)Nc1ccc(CN(C(=O)Nc2c(Cl)c(OC)cc(OC)c2Cl)c2cc(Nc3ccc(N4CCN(C)CC4)cc3)ncn2)cc1", "100%"),
    ("CN(C)C/C=C/C(=O)Nc1ccc(C(=O)Nc2cccc(Nc3nccc(-c4cccnc4)n3)c2)cc1", "85%"),
    ("N#CCNC(=O)c1ccc(-c2ccnc(Nc3ccc(N4CCOCC4)cc3)n2)cc1", "100%"),
]
